The reported numbers originate from a melting point compilation (Tetko et al.).

Recorded melting point for the following compounds
Report the figure in °C without appending any unit label.

These recorded examples may help you get a feel for the data.
{"COMPOUND": "FC(=C(F)C(F)(F)F)C(F)(F)F", "UNIT SPEC": "°C", "melting point": -129}
{"COMPOUND": "CC(CO)NC(=O)OC(C)(C)C (stereo unspecified)", "UNIT SPEC": "°C", "melting point": 60}
{"COMPOUND": "CNC(=O)Oc1ccc2c(c1)C1(C)CCN(C)OC1N2C (stereo unspecified)", "UNIT SPEC": "°C", "melting point": 129}

Attention now turns to another entry.
Check the records and state melting point for "C1COCCOCCOCCO1"
16

---

MEASUREMENT TYPE: melting point (°C)
Return type: number; implicit unit °C.

The cases that follow already have their melting point on record.
{"MOLECULE": "CC12CCC(=O)C=C1CCC1C2C(=O)CC2(C)C(C(=O)CO)CCC12 (stereo unspecified)", "melting point / °C": 184}
{"MOLECULE": "Fc1ccc(P(c2ccc(F)cc2)c2ccc(F)cc2)cc1", "melting point / °C": 80}
{"MOLECULE": "CC1=CCC(C(=O)O)C1(C)C (stereo unspecified)", "melting point / °C": 40.5}

Tell me melting point reported for "Clc1cccc2c1Oc1ccccc1O2"
104

Provide measured melting point value, entry: "NC(=O)OCC(COC(N)=O)c1ccccc1"
151

Determine from records and report melting point for N=C(N)NCC1COc2ccccc2O1 (stereo unspecified)
164

Give the reported melting point for this molecule. CC(C)(C)OC(=O)NC(Cc1ccc(Br)s1)C(=O)O (stereo unspecified)
70.3

Given the molecule "CCN(CC)CCOC(=O)C(c1ccccc1)c1ccccc1" , write its reported melting point.
114

Item "O=C1C=C(NCc2ccccn2)C(=O)c2ccccc21" : provide melting point
149

Read the entry "Cc1ncc(COP(=O)(O)O)c(C=O)c1O" and write its reported melting point.
255

Give me measured melting point, please, for this molecule: O=C(CCc1ccc(O)cc1)c1c(O)cc(O)cc1OC1OC(CO)C(O)C(O)C1O (stereo unspecified)
110

Tell me measured melting point for "CSC" please.
-83

Kindly indicate its recorded melting point. Item: "COc1cc(CC#N)ccc1O"
56.5

Write down melting point measured for item NC(Cn1ccc(=O)c(O)c1)C(=O)O (stereo unspecified)
228

Please report the measured melting point for "CCO[Si](c1ccccc1)(c1ccccc1)c1ccccc1"
65

Indicate its recorded melting point; the molecule in question is "O=[N+]([O-])c1ccc(Cl)cc1O"
41

Provide measured melting point value, entry: "Cc1cc(I)cnc1NCC(=O)OC(C)(C)C"
99

---

MEASUREMENT TYPE: melting point

Sample records with melting point:
{"COMPOUND": "Nc1ncc2nc[nH]c2n1", "melting point": "280 to 284 °C"}
{"COMPOUND": "CCCCCCCCCCCCCCCCC=O", "melting point": "36 °C"}
{"COMPOUND": "O=C(O)c1ccc(C(=O)O)c(Br)c1", "melting point": "295 to 297 °C"}
{"COMPOUND": "OCc1nc2ccccc2[nH]1", "melting point": "165 to 172 °C"}
{"COMPOUND": "CC(C)(C)c1ccc(C(N)=S)cc1", "melting point": "145 to 148 °C"}

// below: melting point requested for another compound
Fill in reported melting point for this entry: "O=[N+]([O-])c1cnc(Cl)c([N+](=O)[O-])c1"
63 to 66 °C
